System: PANC-1
assayProtocol: Cytotoxicity against human PANC1 cells after 48 hrs by SRB assay
Type: functional
studyConditions: PANC-1, 48 h
For each record, write down the corresponding TGI.
One number for each entry, in nM.

These solved cases illustrate the format of a correct answer.
What the record says about `C/C=C1\NC(=O)[C@H](Cc2ccc([N+](=O)[O-])cc2)NC(=O)[C@@H](C(C)C)NC(=O)[C@@H]([C@H](C)CC)NC(=O)[C@H](NC(=O)[C@H](NC(=O)[C@H](CCCN)NC(=O)[C@H]2CCCN2C(=O)[C@H](NC(=O)[C@@H](NC(=O)[C@@H](NC(=O)[C@H](NC(=O)CC[C@@H](C)CC)C(C)C)[C@@H](C)O)C(C)C)C(C)C)[C@H](C)CC)[C@H](C)OC(=O)[C@H](C(C)C)NC1=O` : TGI is 1430

TGI recorded for this molecule, `C/C=C1\NC(=O)[C@H](CCC2CCCCC2)NC(=O)[C@@H](C(C)C)NC(=O)[C@@H]([C@@H](C)CC)NC(=O)[C@H](NC(=O)[C@H](NC(=O)[C@H](CCCN)NC(=O)[C@H]2CCCN2C(=O)[C@H](NC(=O)[C@@H](NC(=O)[C@@H](NC(=O)[C@H](NC(=O)CCCC(C)C)C(C)C)[C@@H](C)O)C(C)C)C(C)C)[C@@H](C)CC)[C@@H](C)OC(=O)[C@H](C(C)C)NC1=O` , is 1290

Then this molecule:
Measured TGI of `C/C=C1\NC(=O)[C@H](Cc2ccccc2)NC(=O)[C@@H](C(C)C)NC(=O)[C@@H]([C@H](C)CC)NC(=O)[C@H](NC(=O)[C@H](NC(=O)[C@H](CCCN)NC(=O)[C@H]2CCCN2C(=O)[C@H](NC(=O)[C@@H](NC(=O)[C@@H](NC(=O)[C@H](NC(=O)c2ccccc2)C(C)C)[C@@H](C)O)C(C)C)C(C)C)[C@H](C)CC)[C@H](C)OC(=O)[C@H](C(C)C)NC1=O` : 4940

###

Kindly state GI50 for each of the entries shown.
Tested on: HT-29
assayProtocol: Cytotoxicity against human HT29 cells after 48 hrs by SRB assay
Assay type: functional, cell-based
studyConditions: Homo sapiens, HT-29, 48 h
Answers are plain numbers, in nM.

Working through the 2 compounds below one at a time, give GI50 for each.
1. C/C=C1\NC(=O)[C@H](Cc2ccccc2)NC(=O)[C@@H](C(C)C)NC(=O)[C@@H]([C@H](C)CC)NC(=O)[C@H](NC(=O)[C@H](NC(=O)[C@H](CCCNC(=O)CCOCCOCCNC(=O)OCC2c3ccccc3-c3ccccc32)NC(=O)[C@H]2CCCN2C(=O)[C@H](NC(=O)[C@@H](NC(=O)[C@@H](NC(=O)[C@H](NC(=O)CCCC(C)C)C(C)C)[C@@H](C)O)C(C)C)C(C)C)[C@H](C)CC)[C@H](C)OC(=O)[C@H](C(C)C)NC1=O
2. C/C=C1\NC(=O)[C@H](Cc2ccccc2)NC(=O)[C@@H](C(C)C)NC(=O)[C@@H]([C@H](C)CC)NC(=O)[C@H](NC(=O)[C@H](NC(=O)[C@H](CCCN)NC(=O)[C@H]2CCCN2C(=O)[C@H](NC(=O)[C@@H](NC(=O)[C@H](CCC(N)=O)NC(=O)[C@H](NC(=O)CCCC(C)C)C(C)C)C(C)C)C(C)C)[C@H](C)CC)[C@H](C)OC(=O)[C@H](C(C)C)NC1=O

RESULT:
1. 85.3
2. 448

###

Test system: DU-145
assayProtocol: Cytotoxicity against human DU145 cells after 48 hrs by SRB assay
Format: functional, cell-based
studyConditions: Homo sapiens, DU-145, 48 h; read-out: LC50 (the source's name)
Can you tell me CC50 for the items I'm about to list?
Give bare numbers, in µM.

For every item below, please supply its CC50.
1. C/C=C1\NC(=O)[C@H](Cc2ccccc2)NC(=O)[C@@H](C(C)C)NC(=O)[C@@H]([C@H](C)CC)NC(=O)[C@H](NC(=O)[C@H](NC(=O)[C@H](CCCN)NC(=O)[C@H]2CCCN2C(=O)[C@H](NC(=O)[C@@H](NC(=O)[C@@H](NC(=O)[C@H](NC(=O)Cc2ccc(C(F)(F)F)cc2)C(C)C)[C@@H](C)O)C(C)C)C(C)C)[C@H](C)CC)[C@H](C)OC(=O)[C@H](C(C)C)NC1=O
2. C/C=C1\NC(=O)[C@H](Cc2ccccc2)NC(=O)[C@@H](C(C)C)NC(=O)[C@@H]([C@H](C)CC)NC(=O)[C@H](NC(=O)[C@H](NC(=O)[C@H](CCCCN)NC(=O)[C@H]2CCCN2C(=O)[C@H](NC(=O)[C@@H](NC(=O)[C@@H](NC(=O)[C@H](NC(=O)CCCC(C)C)C(C)C)[C@@H](C)O)C(C)C)C(C)C)[C@H](C)CC)[C@H](C)OC(=O)[C@H](C(C)C)NC1=O
3. C/C=C1\NC(=O)[C@H](Cc2ccccc2)NC(=O)[C@@H](C(C)C)NC(=O)[C@@H]([C@H](C)CC)NC(=O)[C@H](NC(=O)[C@H](NC(=O)[C@H](CCCN)NC(=O)[C@H]2CCCN2C(=O)[C@H](NC(=O)[C@H](CCC(=O)O)NC(=O)[C@@H](NC(=O)[C@H](NC(=O)CCCC(C)C)C(C)C)[C@@H](C)O)C(C)C)[C@H](C)CC)[C@H](C)OC(=O)[C@H](C(C)C)NC1=O
4. C/C=C1\NC(=O)[C@H](Cc2ccccc2)NC(=O)[C@@H](C(C)C)NC(=O)[C@@H]([C@H](C)CC)NC(=O)[C@H](NC(=O)[C@H](NC(=O)[C@H](CCCN)NC(=O)[C@H]2CCCN2C(=O)[C@H](NC(=O)[C@@H](NC(=O)[C@@H](NC(=O)[C@H](NC(=O)CCCC(C)C)C(C)C)[C@@H](C)O)C(C)C)C(C)C)[C@H](C)CC)[C@H](C)OC(=O)[C@H](C(C)C)NC1=O [KAHALALIDE F]
5. C/C=C1\NC(=O)[C@H](Cc2ccccc2)NC(=O)[C@@H](C(C)C)NC(=O)[C@@H]([C@@H](C)CC)NC(=O)[C@H](NC(=O)[C@H](NC(=O)[C@H](CCCN)NC(=O)[C@H]2CCCN2C(=O)[C@H](NC(=O)[C@@H](NC(=O)[C@@H](NC(=O)[C@H](NC(=O)CCCC(C)C)[C@@H](C)O)[C@@H](C)O)C(C)C)C(C)C)[C@@H](C)CC)[C@@H](C)OC(=O)[C@H](C(C)C)NC1=O

RESULT:
6.24
3.17
1.66
3.72
9.29

###

Test system: HT-29
assayProtocol: Cytotoxicity against human HT29 cells after 48 hrs by SRB assay
Format: functional, cell-based
studyConditions: Homo sapiens, HT-29, 48 h
I'd appreciate it if you could supply GI50 values for the items below.
One number for each entry, in nM.

Reported GI50 for `C/C=C1\NC(=O)[C@H](Cc2ccccc2)NC(=O)[C@@H](C(C)C)NC(=O)[C@@H]([C@H](C)CC)NC(=O)[C@H](NC(=O)[C@H](NC(=O)[C@H](CCCN)NC(=O)[C@H]2CCCN2C(=O)[C@H](NC(=O)[C@@H](NC(=O)[C@@H](NC(=O)[C@@H](CCC(=O)O)NC(=O)CCCC(C)C)[C@@H](C)O)C(C)C)C(C)C)[C@H](C)CC)[C@H](C)OC(=O)[C@H](C(C)C)NC1=O` was 2910

The reported GI50 of the compound `C/C=C1\NC(=O)[C@H](Cc2ccccc2)NC(=O)[C@@H](C(C)C)NC(=O)[C@@H]([C@H](C)CC)NC(=O)[C@H](NC(=O)[C@H](NC(=O)[C@H](CCCN)NC(=O)[C@H]2CCCN2C(=O)[C@H](NC(=O)[C@@H](NC(=O)[C@@H]2CCCN2C(=O)[C@H](NC(=O)CCCC(C)C)C(C)C)C(C)C)C(C)C)[C@H](C)CC)[C@H](C)OC(=O)[C@H](C(C)C)NC1=O` was 4630

Dear reader, for each entry below, please note its GI50.
1. C/C=C1\NC(=O)[C@H](Cc2ccccc2)NC(=O)[C@@H](C(C)C)NC(=O)[C@@H]([C@H](C)CC)NC(=O)[C@H](NC(=O)[C@H](NC(=O)[C@H](CCCC[N+](C)(C)C)NC(=O)[C@H]2CCCN2C(=O)[C@H](NC(=O)[C@@H](NC(=O)[C@@H](NC(=O)[C@H](NC(=O)CC[C@@H](C)CC)C(C)C)[C@@H](C)O)C(C)C)C(C)C)[C@H](C)CC)[C@H](C)OC(=O)[C@H](C(C)C)NC1=O
2. C/C=C1\NC(=O)[C@H](Cc2ccccc2)NC(=O)[C@@H](C(C)C)NC(=O)[C@@H]([C@H](C)CC)NC(=O)[C@H](NC(=O)[C@H](NC(=O)[C@H](CCCN)NC(=O)[C@H]2CCCN2C(=O)[C@H](NC(=O)[C@H](NC(=O)[C@@H](NC(=O)[C@H](NC(=O)CCCC(C)C)C(C)C)[C@@H](C)O)C(C)C)C(C)C)[C@H](C)CC)[C@H](C)OC(=O)[C@H](C(C)C)NC1=O
3. C/C=C1\NC(=O)[C@H](Cc2ccccc2)NC(=O)[C@@H](C(C)C)NC(=O)[C@@H]([C@@H](C)CC)NC(=O)[C@H](NC(=O)[C@H](NC(=O)[C@H](CCCN)NC(=O)[C@H]2CCCN2C(=O)[C@H](NC(=O)[C@@H](NC(=O)[C@@H](NC(=O)[C@H](NC(=O)CCCC(C)C)[C@@H](C)O)[C@@H](C)O)C(C)C)C(C)C)[C@@H](C)CC)[C@@H](C)OC(=O)[C@H](C(C)C)NC1=O

RESULT:
1: 786; 2: 4840; 3: 1060
